EXPERIMENT_DESCRIPTION: Pharmacokinetic evaluation following a single oral and intravenous administration
Type: in vivo, CD1 mouse
TEST_CONDITIONS: CD1, mouse, plasma, iv, 1 mg/kg, Table 3, IV Dose: 1 mg/kg, 1 h, mean; read-out: Concentration, Mean

- SMILES_REPR: "CNCc1ccc(C[C@H](NC(C)=O)c2nnc(-c3cccc(OC(F)(F)F)c3)s2)cc1"
  concentration at 1 h / ng/mL: 47.9

###

EXPERIMENT_DESCRIPTION: Pharmacokinetic evaluation following a single oral and intravenous administration
Format: in vivo, CD1 mouse
TEST_CONDITIONS: CD1, mouse, plasma, po, 5 mg/kg, Table 5, PO Dose: 5 mg/kg, 24 h, Mouse 5; read-out: Concentration

- SMILES_REPR: "CNCc1ccc(C[C@H](NC(C)=O)c2nnc(-c3cccc(OC(F)(F)F)c3)s2)cc1"
  concentration at 24 h / ng/mL: 22.7

###

EXPERIMENT_DESCRIPTION: Pharmacokinetic evaluation following a single oral and intravenous administration
Type: in vivo, CD1 mouse
TEST_CONDITIONS: Table 12, PO Dose: 5 mg/kg, Mouse 6
Experimental: A NMP stock solution was prepared by adding 1.136 mL of NMP to 5.68 mg of compound no. 42140 with vortexing and sonification, to obtain a solution with a concentration at 5 mg/mL of 42140:01. Next, to prepare an intravenous formulation, 0.100 mL of the 5 mg/mL stock solution was placed in a new vial. 0.100 mL of NMP and 0.400 mL of PEG400 were added with vortexing and sonification, followed by addition of 0.400 mL of saline with vortexing and sonification. […] 42140:01. […]

- SMILES_REPR: "CC(=O)N[C@@H](Cc1ccc(CN(C)C)cc1)c1nnc(-c2cccc(OC(F)(F)F)c2)s1"
  UNIT_OF_MEASUREMENT: "h·ng/mL per mg/kg"
  AUClast/D: 188

###

EXPERIMENT_DESCRIPTION: Pharmacokinetic evaluation following a single oral and intravenous administration
Assay type: in vivo, CD1 mouse
TEST_CONDITIONS: CD1, mouse, plasma, iv, 1 mg/kg, Table 9, IV Dose: 1 mg/kg, 8 h, Mouse 1; read-out: Concentration

- COMPOUND: "CC(=O)N[C@@H](Cc1ccc(CN(C)C)cc1)c1nnc(-c2cccc(OC(F)(F)F)c2)s1 [Compound 42320]"
  concentration at 8 h (ng/mL): 4.08

###

EXPERIMENT_DESCRIPTION: Pharmacokinetic evaluation following a single oral and intravenous administration
Assay type: in vivo, CD1 mouse
TEST_CONDITIONS: CD1, mouse, plasma, po, 5 mg/kg, Table 6, PO Dose: 5 mg/kg, mean; read-out: T1/2, Mean (converted)

- COMPOUND: "CNCc1ccc(C[C@H](NC(C)=O)c2nnc(-c3cccc(OC(F)(F)F)c3)s2)cc1 [Compound 42140]"
  half-life, min: 594

###

EXPERIMENT_DESCRIPTION: Pharmacokinetic evaluation following a single oral and intravenous administration
Assay type: in vivo, CD1 mouse
TEST_CONDITIONS: CD1, mouse, plasma, po, 5 mg/kg, Table 6, PO Dose: 5 mg/kg, mean; read-out: AUClast, Mean
Experimental: A NMP stock solution was prepared by adding 1.136 mL of NMP to 5.68 mg of compound no. 42140 with vortexing and sonification, to obtain a solution with a concentration at 5 mg/mL of 42140:01. Next, to prepare an intravenous formulation, 0.100 mL of the 5 mg/mL stock solution was placed in a new vial. 0.100 mL of NMP and 0.400 mL of PEG400 were added with vortexing and sonification, followed by addition of 0.400 mL of saline with vortexing and sonification. […] 42140:01. […]

- COMPOUND: "CNCc1ccc(C[C@H](NC(C)=O)c2nnc(-c3cccc(OC(F)(F)F)c3)s2)cc1 [Compound 42140]"
  AUC(0-t): "1790 ng·h/mL"

###

EXPERIMENT_DESCRIPTION: Pharmacokinetic evaluation following a single oral and intravenous administration
Format: in vivo, CD1 mouse
TEST_CONDITIONS: CD1, mouse, plasma, iv, 1 mg/kg, Table 4, IV Dose: 1 mg/kg, Mouse 3; read-out: T1/2 (converted)

- MOLECULE: "CNCc1ccc(C[C@H](NC(C)=O)c2nnc(-c3cccc(OC(F)(F)F)c3)s2)cc1 [Compound 42140]"
  UNIT_OF_MEASUREMENT: "min"
  half-life: 502

###

EXPERIMENT_DESCRIPTION: Pharmacokinetic evaluation following a single oral and intravenous administration
Type: in vivo, CD1 mouse
TEST_CONDITIONS: CD1, mouse, plasma, po, 5 mg/kg, Table 6, PO Dose: 5 mg/kg, Mouse 4; read-out: AUClast
Experimental: A NMP stock solution was prepared by adding 1.136 mL of NMP to 5.68 mg of compound no. 42140 with vortexing and sonification, to obtain a solution with a concentration at 5 mg/mL of 42140:01. Next, to prepare an intravenous formulation, 0.100 mL of the 5 mg/mL stock solution was placed in a new vial. 0.100 mL of NMP and 0.400 mL of PEG400 were added with vortexing and sonification, followed by addition of 0.400 mL of saline with vortexing and sonification. […] 42140:01. […]

- SMILES_REPR: "CNCc1ccc(C[C@H](NC(C)=O)c2nnc(-c3cccc(OC(F)(F)F)c3)s2)cc1"
  AUC(0-t) (ng·h/mL): 1620

###

EXPERIMENT_DESCRIPTION: Pharmacokinetic evaluation following a single oral and intravenous administration
Assay type: in vivo, CD1 mouse
TEST_CONDITIONS: CD1, mouse, plasma, iv, 1 mg/kg, Table 9, IV Dose: 1 mg/kg, 4 h, Mouse 2; read-out: Concentration

- COMPOUND: "CC(=O)N[C@@H](Cc1ccc(CN(C)C)cc1)c1nnc(-c2cccc(OC(F)(F)F)c2)s1 [Compound 42320]"
  UNIT_OF_MEASUREMENT: "ng/mL"
  concentration at 4 h: 9.71

###

EXPERIMENT_DESCRIPTION: Pharmacokinetic evaluation following a single oral and intravenous administration
Assay type: in vivo, CD1 mouse
TEST_CONDITIONS: CD1, mouse, plasma, iv, 1 mg/kg, Table 4, IV Dose: 1 mg/kg, Mouse 3; read-out: AUClast

- SMILES_REPR: "CNCc1ccc(C[C@H](NC(C)=O)c2nnc(-c3cccc(OC(F)(F)F)c3)s2)cc1"
  AUC(0-t) (ng·h/mL): 394

###

EXPERIMENT_DESCRIPTION: Pharmacokinetic evaluation following a single oral and intravenous administration
Type: in vivo, CD1 mouse
TEST_CONDITIONS: CD1, mouse, plasma, po, 5 mg/kg, Table 6, PO Dose: 5 mg/kg, Mouse 4; read-out: AUCInf
MEASURED_ATTRIBUTE: AUC(0-inf) (ng·h/mL)

- COMPOUND: "CNCc1ccc(C[C@H](NC(C)=O)c2nnc(-c3cccc(OC(F)(F)F)c3)s2)cc1 [Compound 42140]"
  MEASURED_ATTRIBUTE: "AUC(0-inf)"
  OBSERVED_VALUE: 2110

###

EXPERIMENT_DESCRIPTION: Pharmacokinetic evaluation following a single oral and intravenous administration
Assay type: in vivo, CD1 mouse
TEST_CONDITIONS: CD1, mouse, plasma, iv, 1 mg/kg, Table 9, IV Dose: 1 mg/kg, 8 h, Mouse 2; read-out: Concentration

- COMPOUND: "CC(=O)N[C@@H](Cc1ccc(CN(C)C)cc1)c1nnc(-c2cccc(OC(F)(F)F)c2)s1 [Compound 42320]"
  concentration at 8 h: "3.66 ng/mL"

###

EXPERIMENT_DESCRIPTION: Pharmacokinetic evaluation following a single oral and intravenous administration
Type: in vivo, CD1 mouse
TEST_CONDITIONS: CD1, mouse, plasma, iv, 1 mg/kg, Table 4, IV Dose: 1 mg/kg, mean; read-out: MRTInf—obs, Mean

- SMILES_REPR: "CNCc1ccc(C[C@H](NC(C)=O)c2nnc(-c3cccc(OC(F)(F)F)c3)s2)cc1"
  MRT inf, h: 11.8

###

EXPERIMENT_DESCRIPTION: Pharmacokinetic evaluation following a single oral and intravenous administration
Assay type: in vivo, CD1 mouse
TEST_CONDITIONS: CD1, mouse, plasma, iv, 1 mg/kg, Table 10, IV Dose: 1 mg/kg, mean; read-out: AUClast, Mean
MEASURED_ATTRIBUTE: AUC(0-t) (ng·h/mL)

- COMPOUND: "CC(=O)N[C@@H](Cc1ccc(CN(C)C)cc1)c1nnc(-c2cccc(OC(F)(F)F)c2)s1 [Compound 42320]"
  UNIT_OF_MEASUREMENT: "ng·h/mL"
  OBSERVED_VALUE: 165
